B1: HDV Ribozyme (parent)
chain: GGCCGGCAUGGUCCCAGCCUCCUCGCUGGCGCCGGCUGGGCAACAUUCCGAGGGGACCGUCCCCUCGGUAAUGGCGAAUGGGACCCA

Variants of: B1
assay procedure: self-cleavage, relative activity (ratio to wild type); higher = more cleavage; co-transcriptional
A collection of variants and their measured self-cleavage
Give only the figure.

[[record]]
query_sequence = "GGCCGGCAUGGUCCCAGCCUCCUCGCUGGCGCCGGCUCGGCAACAUUCCGAGGGGACCGUCCCCUAGGUAAUGGCGAAUGGGACCCA [G38C C66A]"
measured_quantity = "self-cleavage"
result = 0.189


# context switch: different variant, same self-cleavage
Form field self-cleavage, entry GGCCGGCAUGGUCCCAGCUUCAUCGCUGGCGCCGGCUGGGCAACAUUCCGAGGGGACCGUCCCCUCGGUAAUGGCGAAUGGGACCCA [C19U C22A] : 0.0886
